targetSystem: T1, FZD1 CRD (Homo sapiens, UniProt Q9UP38)
T1 construct: D112-P238; GPI anchor signal (C); expressed in transfected cells; host or cells: CHO cells, lentiviral pLenti-puro
assayDetails: Immunofluorescence of anti-FZD5 Fab binding to CHO cells overexpressing Frizzled CRD
Design: key: −: no binding; +: very weak binder; ++: weak binder; +++: good binder; ++++: very good binder
testReadout: Immunofluorescence binding, Frizzled CRD overexpressed on CHO cells: FZD1

| molecule | experimentalValue |
| --- | --- |
| Fab-2913: anti-FZD5 Fab with antibody variable region Fv-2913; CDR SEQ ID NOs: 35, 36, 52, 91, 128, 165 (antibody, V domains shown) VH: EVQLVESGGGLVQPGGSLRLSCAASGFNISYSSIHWVRQAPGKGLEWVASIYPYSSSTSYADSVKGRFTISADTSKNTAYLQMNSLRAEDTAVYYCARYGYYGLDYWGQGTLVTVSS VL: DIQMTQSPSSLSASVGDRVTITCRASQSVSSAVAWYQQKPGKAPKLLIYSASSLYSGVPSRFSGSRSGTDFTLTISSLQPEDFATYYCQQWGVSHYLFTFGQGTKVEIK | ++ |
| Fab-2899: anti-FZD5 Fab with antibody variable region Fv-2899; CDR SEQ ID NOs: 35, 36, 38, 77, 114, 153 (antibody, V domains shown) VH: EVQLVESGGGLVQPGGSLRLSCAASGFNLYYYYMHWVRQAPGKGLEWVASIYPSSGSTSYADSVKGRFTISADTSKNTAYLQMNSLRAEDTAVYYCARGALDYWGQGTLVTVSS VL: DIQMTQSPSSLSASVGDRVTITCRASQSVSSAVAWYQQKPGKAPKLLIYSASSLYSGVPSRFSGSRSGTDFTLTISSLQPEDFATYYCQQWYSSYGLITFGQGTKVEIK | +++ |
| Fab-2898: anti-FZD5 Fab with antibody variable region Fv-2898; CDR SEQ ID NOs: 35, 36, 37, 76, 113, 152 (antibody, V domains shown) VH: EVQLVESGGGLVQPGGSLRLSCAASGFNIYSYSMHWVRQAPGKGLEWVASIYSSSGSTSYADSVKGRFTISADTSKNTAYLQMNSLRAEDTAVYYCARAVWGLDYWGQGTLVTVSS VL: DIQMTQSPSSLSASVGDRVTITCRASQSVSSAVAWYQQKPGKAPKLLIYSASSLYSGVPSRFSGSRSGTDFTLTISSLQPEDFATYYCQQWWGYYSLITFGQGTKVEIK | ++++ |
